- Test system: MS2 coat protein
- Method Notes: apparent KD of MS2 coat protein, switch ON state; designed switch direction (-1 OFF switch, 1 ON switch): 1; higher = weaker reporter binding
- Cond: FMN input: 0 or 200 uM; Eterna round: R93 (includes R88 designs)
Each item that follows carries a reported apparent KD of MS2 coat protein.
Give the number; nM is assumed, so skip it.

Solved cases below.
CGCCAAUUGGCACAGGAUAUGAGCAUGCUCACAUGAGGAUCACCCAUGUGAUUACCAACGCAAAAUCAGAAGGGUGCCCUCGUCA [Beanza] = 69
GAAAAACAUGAGGAUCACCCAUGUAGAAAUAUGGGAGGAUAUACAAAGACGAAAGUCAAAGUAGAAGGCCUCAAAG [JL S1 M-MoE mod 2 In the Red] = 84.9
GAAAAACAUGAGGAUCACCCAUGUAGAAAUAUGGGAGGAUAUACGAAGACGAAAGUCGAGGUAGAAGGCCUAAAAG [Garnet 54] = 34.7
CAUCAUGCGCCUAAGGAUAUGUCCCACAAGACAUGAGGAUCACCCAUGUAGCCAAUUAAUACGGUGCAGAAGGUGGAGCGCAUGC [Qusotior] = 315
GCAAAACAUGAGGAUCACCCAUGUCAACAAAAUCAAGGAUAUGAGCCGGCAUUGCCGGCAUCAGAAGGUGAACCUU [Gemaisinve] = 96.1

Report apparent KD of MS2 coat protein for GAAAAACAUGAGGAUCACCCAUGUAAAAAUAUGGGAGGAUAUUCAAACACGAAAGUCAAAGAAGAAGGCCUAAAAG [Garnet 2] please.
30.4

Cool, now AAUAAACAUGAGGAUCACCCAUGUUUUAAUAGUUGAGGAUAUACGGGUGAAAAUAGCAUAGUAGAAGGCGAGUGUA [SameState1 Malc#13]
31.2

What about this sequence? GGAAAGGAGAGAGAGGAUAUCCAAAGGAAAACAUGAGGAUCACCCAUGUAGAAGGUAGGAAAUUGGGAGAAGGCUCAAGAAAGAG [salish99-ss2-138]
21

Then what about the sequence AAAUAACAUGAGGAUCACCCAUGUUGCAACGAUACAGGAUAUGUGGGUGAAAAUAGCAUGACAGAAGGGUAAUGUA [SameState1 Malc#31] ?
401

Similarly, GACCGACAUGAGGAUCACCCAUGUCGGAAAAGGCAAGGAUAUGGGCGGUACCAAUUUCGGUCAGAAGGUGCAAAAG [Aatisri] ?
12.4

What about AAAUAACAUGAGGAUCACCCAUGUUACGACUUUACAGGAUAUGUGGGUGAAAAUAGCAUGACAGAAGGGUACAGUA [SameState1 Malc#36] ?
205

Likewise for AAAAAAUAAAAAAAGGAUAUAAUCGAUGGAACAUGAGGAUCACCCAUGUGACAUCGAAAAAUAAAAAAGAAGGAAAAAUAAAAAA [SS2: MS2 24] ?
17.6

Repeat for the following sequence: AAAACACAUGAGGAUCACCCAUGUAAAAACAUGGGAGGAUAUGCAUGAAAAACAUGCUAUGCAGAAGGCUCAUGUG [SS1 - 2]
29

// next record AAAAAACAUGAGGAUCACCCAUGUAAAAAAAACACAGGAUAUCCCUUUUUUAAAAAAAAAGGAGAAGGGUGAAAAA [Nob's Hobby 7 - Jieux - Same State 1]
31.1
